test system: Danio rerio Tg(wt1b:EGFP) embryo, pronephros; test: fraction of imaged embryos annotated as normal kidney; higher = less nephrotoxic; extreme values may be limits of the assay; settings: 25 µM; exposure: 24-48 hpf
Structures can show the parent of a compound that is named as a salt.
Kindly state fraction of imaged embryos annotated as normal kidney for each of the entries shown.
# answer = number (no unit)

Give the reported fraction of imaged embryos annotated as normal kidney for COc1cc(C(=O)NS(=O)(=O)c2ccccc2C)ccc1Cc1cn(C)c2ccc(NC(=O)OC3CCCC3)cc12 (system: Danio rerio Tg(wt1b:EGFP) embryo, pronephros). 1

// next record NC[C@@H]1O[C@@H](O[C@H]2[C@H](O)[C@@H](O[C@H]3O[C@H](CO)[C@@H](O)[C@H](N)[C@H]3O)[C@H](N)C[C@@H]2N)[C@@H](O)[C@H](O)[C@H]1O [Kanamycin A sulfate] 0.667

// next record COC(=O)C1=C(C)NC(C)=C(C(=O)OC(C)C)C1c1cccc2nonc12 (centres undefined) 0

// next record COc1ccc(CC2c3cc(OC)c(OC)cc3CC[N+]2(C)CCC(=O)OCCCCCOC(=O)CC[N+]2(C)CCc3cc(OC)c(OC)cc3C2Cc2ccc(OC)c(OC)c2)cc1OC (centres undefined) [Atracurium besylate] 0.917

// next record CC12CC3CC(C)(C1)CC(N)(C3)C2 [Memantine Hydrochloride] 0.917

// next record CO[C@@H]1[C@@H](OC(N)=O)[C@@H](O)[C@H](Oc2ccc3c(O)c(NC(=O)c4ccc(O)c(CC=C(C)C)c4)c(=O)oc3c2C)OC1(C)C [Novobiocin sodium salt] 0.75

// next record CC(=O)NS(=O)(=O)c1ccc(N)cc1 [Sulfacetamide sodic hydrate] 1

// next record CC1(C)O[C@@H]2C[C@H]3[C@@H]4C[C@H](F)C5=CC(=O)C=C[C@]5(C)[C@H]4[C@@H](O)C[C@]3(C)[C@]2(C(=O)CO)O1 [Flunisolide] 0.667

// next record CC(=O)c1ccc(S(=O)(=O)NC(=O)NC2CCCCC2)cc1 [Acetohexamide] 0.833

// next record CSc1ccc2c(c1)C(N1CCN(C)CC1)Cc1ccccc1S2 (centres undefined) [Methiothepin maleate] 0.833

// next record Cc1ncc(C[n+]2csc(CCO)c2C)c(N)n1 [Thiamine hydrochloride] 0.917

// next record Cc1scc2c1N(C(=O)CN1CCN(C)CC1)c1ccccc1NC2=O [Telenzepine dihydrochloride] 1

// next record CC1=C(/C=C/C(C)=C/C=C/C(C)=C\C(=O)O)C(C)(C)CCC1 0

// next record CCCNC(=O)NS(=O)(=O)c1ccc(Cl)cc1 [Chlorpropamide] 0.75

// next record CCCc1nn(C)c2c(=O)[nH]c(-c3cc(S(=O)(=O)N4CCN(C)CC4)ccc3OCC)nc12 1

// next record CN(C)CCCN1c2ccccc2CCc2ccccc21 [Imipramine hydrochloride] 0.75

// next record Cn1c(NCCN(CCO)CCCc2ccc([N+](=O)[O-])cc2)cc(=O)n(C)c1=O 0.833

// next record CCC1(C)CC(=O)NC1=O (centres undefined) [Ethosuximide] 0.833

// next record CCCCc1ccc2[nH]c(NC(=O)OC)nc2c1 0

// next record C[C@@H](c1ncncc1F)[C@](O)(Cn1cncn1)c1ccc(F)cc1F 0.5

// next record CC(C(O)c1ccc(O)cc1)N1CCC(Cc2ccccc2)CC1 (centres undefined) [Ifenprodil tartrate] 1

// next record O=C(CCCN1CCC(O)(c2ccc(Cl)cc2)CC1)c1ccc(F)cc1 0.833

// next record CCCCOC(=O)c1ccc(N)cc1 0.917

// next record N#Cc1ccc(C(c2ccc(C#N)cc2)n2cncn2)cc1 0.917

// next record CC[C@]12CCCN3CCc4c(n(c5ccccc45)C(=O)C1)[C@@H]32 [Eburnamonine (-)] 1

// next record CN1C(C(=O)Nc2ccccn2)=C(O)c2ccccc2S1(=O)=O 0

// next record Clc1ccccc1CN1CCc2sccc2C1 [Ticlopidine hydrochloride] 0.833

// next record OC(c1cc(C(F)(F)F)nc2c(C(F)(F)F)cccc12)C1CCCCN1 (centres undefined) [Mefloquine hydrochloride] 0.667

// next record CCCOc1cc(N)ccc1C(=O)OCCN(CC)CC [Propoxycaine hydrochloride] 0.917

// next record CCOCCn1c(N2CCCN(C)CC2)nc2ccccc21 0.917

// next record COc1ccccc1OCCNCC(O)COc1cccc2[nH]c3ccccc3c12 (centres undefined) 0.8

// next record CCOC(=O)C1=C[C@]2(CC)CCCN3CCc4c(n1c1ccccc41)[C@@H]32 0.909

// next record Cc1ncc([N+](=O)[O-])n1CCO 0.917

// next record Nc1c(Br)cc(Br)cc1CN[C@H]1CC[C@H](O)CC1 [Ambroxol hydrochloride] 1
